- target_system: HIV protease (Human immunodeficiency virus type 1 group M subtype B)
- experiment_description: Enzymatic (FRET fluorometric) assay for determining the inhibition constant (Ki) of compounds targeting the HIV protease
- Type: biochemical
- measurement_setup: FRET substrate (EDANS/DABCYL), equation of Henderson; read-out: Ki
- Source text: Enzymatic Assay for Determining the Inhibition Constant (Ki) of Synthetic Compounds Targeting the HIV Protease This is a fluorometric assay based on the cleavage by protease of a substrate carrying a donor group (EDANS) and an acceptor group (DABCYL) on each side of the cleavage site, interacting together through fluorescence resonance energy transfer (FRET) as described by Matayoshi et al. (Science 247:[…], 1990). […] Graphs are traced and the Ki determined using GraphPad Prism software v. […]
pKi: −log10 of the molar value.
// bucketize pKi: lo = under 7, mid = from 7 up to 8, hi = 8 and over

{"columns": ["compound", "target_system", "class_label"],
 "data": [
  ["CCC(C)CN(C(CO)CCCCNC(=O)N(Cc1ccccc1)Cc1cccc2c1OCO2)S(=O)(=O)c1ccc(N)cc1 (stereo not drawn)", "HIV protease (Human immunodeficiency virus type 1 group M subtype B)", "mid"],
  ["CC(C)CN([C@H](CO)CCCCNC(=O)N(Cc1ccc2c(c1)OCO2)Cc1cccs1)S(=O)(=O)c1ccc(N)cc1", "HIV protease (Human immunodeficiency virus type 1 group M subtype B)", "hi"],
  ["CC(C)CN([C@@H](CCCCNC(=O)NCc1ccccc1)C(=O)O)S(=O)(=O)c1ccc(N)cc1", "HIV protease (Human immunodeficiency virus type 1 group M subtype B)", "lo"],
  ["CC(C)CN([C@H](CO)CCCCNC(=O)N(Cc1ccccc1)Cc1cccnc1)S(=O)(=O)c1ccc(N)cc1", "HIV protease (Human immunodeficiency virus type 1 group M subtype B)", "mid"],
  ["CC(C)CN([C@H](CO)CCCCNC(=O)N[C@@H](Cc1c[nH]c2ccccc12)C(=O)O)S(=O)(=O)c1ccc(N)cc1", "HIV protease (Human immunodeficiency virus type 1 group M subtype B)", "lo"],
  ["Cc1ccc(S(=O)(=O)N(CC(C)C)[C@@H](CCCCNC(=O)N(Cc2ccccc2)Cc2cccc([N+](=O)[O-])c2)C(=O)O)cc1", "HIV protease (Human immunodeficiency virus type 1 group M subtype B)", "hi"],
  ["CC(C)CN([C@H](CO)CCCCNC(=O)NCc1ccc2c(c1)OCO2)S(=O)(=O)c1ccc(N)cc1", "HIV protease (Human immunodeficiency virus type 1 group M subtype B)", "mid"],
  ["Cc1ccc(S(=O)(=O)N(CC(C)C)[C@H](CO)CCCCNC(=O)N(Cc2ccccc2)Cc2ccc(N)cc2)cc1", "HIV protease (Human immunodeficiency virus type 1 group M subtype B)", "mid"],
  ["CC(C)CN([C@H](CO)CCCCNC(=O)N(Cc1ccc([N+](=O)[O-])cc1)Cc1ccc2c(c1)OCO2)S(=O)(=O)c1ccc(N)cc1", "HIV protease (Human immunodeficiency virus type 1 group M subtype B)", "hi"],
  ["Cc1ccc(S(=O)(=O)N(CC(C)C)[C@@H](CCCCNC(=O)NCCc2ccccc2)C(=O)O)cc1", "HIV protease (Human immunodeficiency virus type 1 group M subtype B)", "lo"],
  ["COc1ccc(CN(Cc2ccc3c(c2)OCO3)C(=O)NCCCC[C@@H](CO)N(CC(C)C)S(=O)(=O)c2ccc(N)cc2)cc1", "HIV protease (Human immunodeficiency virus type 1 group M subtype B)", "hi"],
  ["CCC(C)CN(C(CO)CCCCNC(=O)N(Cc1ccc2c(c1)OCO2)Cc1cccs1)S(=O)(=O)c1ccc(N)cc1 (stereo not drawn)", "HIV protease (Human immunodeficiency virus type 1 group M subtype B)", "mid"],
  ["Cc1ccc(S(=O)(=O)N(CC(C)C)[C@H](CO)CCCCNC(=O)N(Cc2ccccc2)Cc2cccc(N)c2)cc1", "HIV protease (Human immunodeficiency virus type 1 group M subtype B)", "mid"],
  ["Cc1ccc(S(=O)(=O)N(CC(C)C)[C@@H](CCCCNC(=O)NCCc2c[nH]c3ccccc23)C(=O)O)cc1", "HIV protease (Human immunodeficiency virus type 1 group M subtype B)", "mid"]
]}
